Each entry below carries its recorded ELISA absorbance.
- system.name: T1, cynomolgus EpCAM protein (cynomolgus monkey)
- T1 construct: biotinylated in the Octet assays; also called cy EpCAM; cynomolgus monkey EpCAM
- procedure.details: colorimetric ELISA
- Excerpt: Llamas were immunized with purified EpCAM protein expressed in Expi293 cells. A phage display library for expression of heavy variable antibody domains was constructed from circulating B cells. See van der Linden, de Geus, Stok, Bos,van Wassenaar, Verrips, and Frenken. 2000. J Immunol Methods 240:185-195. […]
reported.metric: ELISA absorbance (absorbance)

>>> obs_value("Llama anti-EpCAM single domain antibody EPL58 (VHH, E. coli periplasmic extract) VHH: QVQLQESGGGLVQAGGSLRLSCAASGPIFSDTIRTMGWYRQAAGKQRELVATIASFPSRTNYVDSVKGRFTISRDIAKNTVYLQMDSLKPEDTAVYYCNVDLASIPTKTYWGQGTQVTVSS")
0.5
>>> obs_value("Llama anti-EpCAM single domain antibody EPL125 (VHH, E. coli periplasmic extract) VHH: QVQLQESGGGLVQAGGSLRLSCAASGNVFRAATMAWYRQVPEKQREMVATIASGGTTNYADFVKGRFTISRDNAKNTVYLQMNTLKPEDTAVYYCNALYLTSLGPKSYWGQGTQVTVSS")
3.5
>>> obs_value("Llama anti-EpCAM single domain antibody EPL82 (VHH, E. coli periplasmic extract) VHH: QVQLQESGGGLVQAGGSLKLSCTASGTILSTMAWYRQAPGKQRELVATISRGGTTNYSDSVKGRFAISRDSTKNTVYLQMNSLKPEDTAVYYCNTPLTDYGMGYNWGQGTQVTVSS")
1.1
>>> obs_value("Llama anti-EpCAM single domain antibody EPL15 (VHH, E. coli periplasmic extract) VHH: QVQLQESGGGSVLAGGSLRLSCAASGFTFSSYYMSWVRQAPGKGLEWVSGIHYTGDWTNYADSVKGRFTISRDNAKNELYLEMNNLKPEDTAVYYCARGSDKGQGTQVTVSS")
3.2
